Cited source for all entries: patent US20250019427A1

Target: T1, Human GDF15 Fc (human) (UniProt Q99988)
T1 sequence (chain, biotinylated (EZ-Link Sulfo-NHS-Biotinylation Kit) where printed as biotinylated): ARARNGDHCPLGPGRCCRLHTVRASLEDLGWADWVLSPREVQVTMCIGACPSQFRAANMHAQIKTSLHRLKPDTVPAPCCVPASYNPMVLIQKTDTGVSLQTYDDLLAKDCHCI
Assay: SPR Biacore, Fab monovalent
Overview of reported Kd across a group of binders:
Number in nM, nothing else.

Would you please look over these solved cases?
{"columns": ["binder", "Kd / nM"],
 "data": [
  ["Clone I Fab (Fab, V domains shown) VH: QVQLVQSGAEVKKPGASVKVSCKASGYTFTDEGINWVRQAPGQGLEWMGWITAYSGDTVYAQKLQGRVTMTTDTSTSTAYMELRSLRSDDTAVYYCARGPGQYADVDVWGQGTMVTVSS VL: DIQMTQSPSSVSASVGDRVTITCRASQGISSWLAWYQQKPGKAPKLLIYAASSLQSGVPSRFSGSGSGTDFTLTISSLQPEDFATYYCQQANSFPITFGGGTKVEIK", 0.0672],
  ["Clone J Fab (Fab, V domains shown) VH: QVQLVQSGAEVKKPGASVKVSCKASGYTFTSYGINWVRQAPGQGLEWMGWIDAYSGSTNYAQKLQGRVTMTTDTSTSTAYMELRSLRSDDTAVYYCARGPGQYADVDVWGQGTMVTVSS VL: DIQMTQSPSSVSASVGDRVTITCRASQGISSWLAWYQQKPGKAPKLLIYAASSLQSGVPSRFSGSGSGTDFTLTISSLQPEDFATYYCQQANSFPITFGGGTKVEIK", 0.0884]
]}

Continue with the binder presented below.
Reported Kd for Clone E Fab (Fab, V domains shown) VH: QVQLVQSGAEVKKPGASVKVSCKASGYTFTSYGINWVRQAPGQGLEWMGWITAYSGDTNYAQKLQGRVTMTTDTSTSTAYMELRSLRSDDTAVYYCARGPGQYADVDVWGQGTMVTVSS VL: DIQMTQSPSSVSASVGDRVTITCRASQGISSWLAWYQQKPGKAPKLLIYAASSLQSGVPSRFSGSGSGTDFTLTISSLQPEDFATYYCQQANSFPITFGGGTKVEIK was 0.0331
